Experiment: probe aNOTCH2 binding on compound microarray – biochemical, small-molecule microarray, 635/667 nm fluorescence, primary screen (AID 1121);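 note: score merges feature fluorescence read at 667 nm with its signal to noise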
Conditions: higher = more signal
// label = met if composite z-score is not less than -0.02, otherwise not met

{"compound": "Cc1ccc(N2C(=O)c3ccccc3[C@@H](C(=O)NCCCN(C)C)[C@@H]2c2ccc(CO)cc2)nc1", "cat": "not met"}
{"compound": "C=CCC(OC(C)=O)[C@@H]1[C@@H](N(Cc2ccc(-c3cccc(C(F)(F)F)c3)o2)C(=O)Cc2ccc(OC)cc2)c2cc(OCCCO)ccc2N1C(=O)c1ccc(-c2ccccc2)cc1 (some centres undefined)", "cat": "met"}
{"compound": "CC(C)=C1C(=O)C(c2ccccc2)=C2CN3C(=O)N(CCc4ccccc4)C(=O)[C@]3(Cc3ccc(C(F)(F)F)cc3)[C@H]21", "cat": "met"}
{"compound": "[N-]=[N+]=Nc1ccccc1C[C@]1(C(=O)NCC(O)CO)COC(c2ccc(OCCCO)cc2)=N1 (some centres undefined)", "cat": "not met"}
{"compound": "COC(=O)[C@@]1(Cc2ccccc2)[C@H]2c3cc(C(=O)N4CCCC4)n(CCc4ccccn4)c3C[C@H]2CN1C(=O)c1ccccc1", "cat": "met"}
{"compound": "Oc1ccc2cc[n+](Cc3cc4c(cc3Br)OCO4)cc2c1", "cat": "not met"}
{"compound": "CC1CC/C=C\\[C@H]2OC34C=CCN(Cc5ccccc5)C(=O)[C@H]3N(C(CO)C(C)C)C(=O)[C@@H]4C2C(=O)O1 (some centres undefined)", "cat": "not met"}
{"compound": "CCCC#C[Si](O[C@H](CC)c1cn([C@H](C)c2ccccc2)nn1)(C(C)C)C(C)C", "cat": "not met"}
{"compound": "Cc1ccc(F)cc1S(=O)(=O)N[C@@H]1CCN(Cc2ccc(Br)cc2)C1", "cat": "not met"}
{"compound": "C#CCN(Cc1ccccc1Br)[C@H](/C=C/c1ccccc1)[C@@H](O)Cc1ccccc1", "cat": "not met"}
{"compound": "O=C1N(CCS(=O)(=O)c2ccccc2)c2ccccc2[C@H]2OC(c3ccc(OCCCO)cc3)=N[C@@]12Cc1ccccc1", "cat": "met"}
{"compound": "C=C(/C(=C/C[C@H](OC(=O)c1ccncc1)c1ccc(CO)o1)c1cnc2ccccc2c1)C(C)C", "cat": "not met"}
{"compound": "Cc1ccc(S[C@]2(C(=O)NC(C)C)CC(=O)N(Cc3cc(C(F)(F)F)cc(C(F)(F)F)c3)[C@@H]2c2ccc(CO)cc2)cc1", "cat": "not met"}
{"compound": "C=C(C(=O)CC[C@H](OC(=O)c1ccccc1-c1ccccc1C(=O)O)c1cccc(OCCO)c1)C(C)C", "cat": "not met"}

###

As shown below, each of these compounds has a reported composite z-score value.
Molecular target: Epidermal growth factor receptor (Homo sapiens)
Assay: compounds binding epidermal growth factor receptor – biochemical, small-molecule microarray, 635 nm fluorescence, primary screen (AID 1104);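 note: score merges 667 nm emission intensity with spot signal to noise over triplicate slides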
Conditions: EGFR binding, higher = more signal
endpoint name: composite z-score

{"compound": "[N-]=[N+]=Nc1ccccc1[C@H]1OC(c2ccc(OCCCO)cc2)=N[C@@]1(Cc1ccccc1)C(=O)NCCN1CCOCC1", "target or test system": "Epidermal growth factor receptor (Homo sapiens)", "endpoint name": "composite z-score", "number": 0.81}
{"compound": "CCOC(=O)C1=CC[C@@H](c2ccccc2F)N(S(=O)(=O)c2ccc(C)cc2)[C@H]1c1ccccc1", "target or test system": "Epidermal growth factor receptor (Homo sapiens)", "endpoint name": "composite z-score", "number": 0.486}
{"compound": "NC(=O)NCC#Cc1ccc2c(c1)[C@]1(C(=O)N2)[C@H](c2ccccc2OCCO)N2[C@H](c3ccccc3)[C@H](c3ccccc3)OC(=O)[C@H]2[C@@H]1C(=O)O", "target or test system": "Epidermal growth factor receptor (Homo sapiens)", "endpoint name": "composite z-score", "number": -0.218}
{"compound": "COc1ccc([Si](C)(C)[C@@H]2[C@@H](CCO)O[C@]3(C(=O)N(Cc4ccccc4)c4ccc(N5CCOC5=O)cc43)[C@H]2C)cc1", "target or test system": "Epidermal growth factor receptor (Homo sapiens)", "endpoint name": "composite z-score", "number": 0.254}
{"compound": "C=CCC(OC(C)=O)[C@@H]1[C@@H](N(Cc2ccc(-c3cccc(C(F)(F)F)c3)o2)C(=O)Cc2ccc(OC)cc2)c2cc(OCCCO)ccc2N1C(=O)c1ccc(-c2ccccc2)cc1 (some centres not stated)", "target or test system": "Epidermal growth factor receptor (Homo sapiens)", "endpoint name": "composite z-score", "number": -0.577}
{"compound": "COC(=O)[C@@]1(Cc2ccc(F)cc2)[C@H]2c3cc(C(=O)N4CCCC4)n(CCc4c[nH]c5ccccc45)c3C[C@H]2CN1C(=O)c1ccccc1", "target or test system": "Epidermal growth factor receptor (Homo sapiens)", "endpoint name": "composite z-score", "number": 0.549}
{"compound": "[N-]=[N+]=NCc1ccccc1C[C@@]1(C(N)=O)N=C(c2ccc(OCCCO)cc2)O[C@@H]1c1ccccc1", "target or test system": "Epidermal growth factor receptor (Homo sapiens)", "endpoint name": "composite z-score", "number": -0.892}

###

Assay: plasmodial surface anion channel blockers, osmotic lysis – cell-based, P. falciparum Indochina, OD700, 2 h, primary screen (AID 1155);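 note: lysis reports solute entry through the parasite surface anion channel PSAC; channel blockers reduce lysis of infected cells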
Settings: P. falciparum Indochina infected erythrocytes, higher = more signal, called active from +8 up or from −8 down
Active and inactive are the calls of the source.
As shown below, each of these compounds has a reported z-score value.
endpoint name: z-score

{"compound": "C=CCOC(=O)[C@@H]1[C@H]2C(=O)O[C@H](c3ccccc3)[C@H](c3ccccc3)N2[C@H](c2ccc(OCCOC(=O)[C@@H]3C[C@@H]4C(=O)N[C@@H](CCCC[N+](C)(C)C)C(=O)N4[C@@H]3c3ccc(O)cc3)cc2)[C@@]12C(=O)Nc1ccc(I)cc12", "result": "1.12 (inactive)"}
{"compound": "C=CCNC(=O)[C@@H]1[C@H]2C(=O)O[C@H](c3ccccc3)[C@H](c3ccccc3)N2[C@H](c2ccccc2OCCO)[C@@]12C(=O)Nc1ccc(C#CCC(C(=O)OC)C(=O)OC)cc12", "result": "1.81 (inactive)"}
{"compound": "O=C1C2C=CC(C(O)c3cccc(O)c3)N(Nc3ccc([N+](=O)[O-])cc3)C2C(=O)N1c1ccccc1 (stereo not given)", "result": "5.34 (inactive)"}
{"compound": "COC(=O)[C@@]1(Cc2ccc(OC)cc2)[C@H]2c3cc(C(=O)N4CCCC4)n(CCO)c3C[C@H]2CN1C(=O)c1ccccc1", "result": "0.766 (inactive)"}
{"compound": "CC(C)[Si]1(C(C)C)OCc2cc(C3CC3)nc(-c3ccc(Oc4ccccc4)cc3)c21", "result": "1.8 (inactive)"}

###

Assay: compound effects on hepatocellular carcinoma cell viability – HepG2, calcein-AM fluorescence, 48 h, basal, profiling panel (AID 1164); note: test concentration not given here
Conditions: higher = more signal
As shown below, each of these compounds has a reported z-score value.

{"compound": "COCCOC(=O)N1C(=O)[C@@]2(c3cc(C#CC4=CCCCC4)ccc31)[C@H](c1ccccc1OCCO)N1[C@H](c3ccccc3)[C@H](c3ccccc3)OC(=O)[C@H]1[C@@H]2C(=O)NC[C@H](O)c1ccccc1", "z-score": -0.529}
{"compound": "COc1cccc(C)c1NC(=O)O[C@H]1[C@H](OC(=O)Nc2ccc3c(c2)OCO3)[C@@H](OC(=O)Nc2ccc3c(c2)OCO3)[C@@H](OC)O[C@@H]1CO", "z-score": -1.28}
{"compound": "COc1ccc([Si](C)(C)[C@@H]2[C@@H](CCO)O[C@]3(C(=O)N(Cc4ccccc4)c4ccc(NC(=O)[C@H](C)O)cc43)[C@H]2C)cc1", "z-score": -4.61}
{"compound": "C=CCNC(=O)[C@@H]1[C@H]2C(=O)O[C@H](c3ccccc3)[C@H](c3ccccc3)N2[C@H](c2ccc(O)cc2)[C@@]12C(=O)N(C(=O)OCCOC)c1ccc(C#CC3=CCCCC3)cc12", "z-score": 0.423}
{"compound": "C=CCNC(=O)[C@@H]1[C@H]2C(=O)O[C@H](c3ccccc3)[C@H](c3ccccc3)N2[C@H](c2ccccc2OCCO)[C@@]12C(=O)Nc1ccc(C#CCC(C(=O)OC)C(=O)OC)cc12", "z-score": -0.852}
{"compound": "CCC1=C2CN(Cc3ccccc3)[C@@H](C(=O)Cc3ccccc3)C2C=CCC1 (stereo not given in full)", "z-score": -0.342}
{"compound": "C=CC[C@]1(C(=O)N2CCCCC2)N=C(c2ccc(OCCCO)cc2)O[C@H]1c1ccccc1CN=[N+]=[N-]", "z-score": 0.61}
{"compound": "COCCOC(=O)N1C(=O)[C@@]2(c3cc(C#CC4(O)CCCCCC4)ccc31)[C@H](C(=O)N1CCc3cc(OC)c(OC)cc3C1)[C@H]1C(=O)O[C@H](c3ccccc3)[C@H](c3ccccc3)N1[C@@H]2c1ccc(OCCO)cc1", "z-score": -0.653}
{"compound": "CCOC(=O)C[C@H]1[C@H](OC(=O)Cc2ccc3c(c2)OCO3)[C@@H](NC(=O)c2ccc3ccccc3n2)c2cc(OCCCO)ccc2N1C(=O)c1ccccc1", "z-score": 0.731}
{"compound": "CS(=O)(=O)CCOC(=O)C1=CC(c2ccc(CO)cc2)=CC(C2CC2)N(Cc2sc3ccccc3c2Cl)C=C1C(=O)OCCS(C)(=O)=O (stereo not given)", "z-score": 0.0312}
{"compound": "COC(=O)[C@]1(CCS(=O)(=O)c2ccccc2)N=C(c2ccc(OCCCO)cc2)O[C@@H]1c1ccccc1N=[N+]=[N-]", "z-score": -2.18}
{"compound": "CN(C)c1ccc(C(O)C2C=CC3C(=O)NC(=O)C3N2Nc2ccccn2)cc1 (stereo not given)", "z-score": -0.331}
{"compound": "O=C1O[C@@H](c2ccccc2)[C@@H](c2ccccc2)N2[C@@H](c3ccc(OCCO)cc3)[C@]3(C(=O)Nc4ccc(C#CC5=CCCCC5)cc43)[C@@H](C(=O)NC[C@H](O)c3ccccc3)[C@H]12", "z-score": 0.348}
{"compound": "COCCOC(=O)N1C(=O)[C@@]2(c3cc(C#CCC(C(=O)OC)C(=O)OC)ccc31)[C@H](c1ccc(OCCO)cc1)N1[C@H](c3ccccc3)[C@H](c3ccccc3)OC(=O)[C@H]1[C@@H]2C(=O)N1CCc2cc(OC)c(OC)cc2C1", "z-score": 0.0859}
{"compound": "C#CCN(Cc1ccccc1Br)[C@H](/C=C/c1ccccc1)[C@@H](O)Cc1ccccc1", "z-score": -1.54}
{"compound": "CCOC(=O)C[C@H]1[C@H](OC(=O)c2ccc(C(=O)c3ccccc3)cc2)[C@@H](NC(=O)c2ccc(-c3ccccc3)cc2)c2cc(OCCCO)ccc2N1C(=O)Cc1ccc(OC)cc1", "z-score": -0.461}
{"compound": "Cc1ccc(F)cc1S(=O)(=O)N[C@@H]1CCN(Cc2ccc(Br)cc2)C1", "z-score": -0.65}
{"compound": "COC(=O)[C@@]1(Cc2ccc(OC)cc2)[C@H]2c3cc(C(=O)N(C)C)n(Cc4ccc(OC(F)(F)F)cc4)c3C[C@H]2CN1C(=O)c1ccccc1", "z-score": -0.77}
{"compound": "O=C1OCCC/C=C\\[C@H]2OC34C=CCN(c5ccc6ccccc6c5)C(=O)[C@H]3N(CCO)C(=O)[C@@H]4C12 (stereo not given in full)", "z-score": -0.569}
{"compound": "C=C[C@@H](OC)[C@H](OC(=O)Nc1ccc(OC)cc1)c1ccc(O)c(F)c1", "z-score": -0.723}

The measured values listed here are drawn from PubChem BioAssay.
